test-description: soluble on expression in E. coli; label from the status in PepcDB or PDB records
measurement-type: soluble on expression in E. coli

monomer-sequence	result
MGSDKIHHHHHHMRTLKVLHLASFDGNIGDNANHNGVRFLWKKYLPEYDFAITPLEMREYFWKWKSFDDGFADMVNEYDLFVCGGGNYFELWVQSSPTGTSVAIPLEVLRKIKTPCLFYALGLDPYMGAPDICIERFKRFLDYTLASPQFLVSVRNDGSLDSARRVLGGEYADRIHLMPDGGHFVQPEACTHYELTPGARTIGVNLAGDMLDFRFKSCNGKNLNDFKRSTAAVLCDIMRRMPDVNLIFYPHIHKDYSFLADFICGIDDHLLRRRITVAPYLHGQGAERKFFDLYRQCALNIGTRLHANICSVGLKTPSIGIVTHEQIHELYGYYGMAERALRFSDDNYAAKLDDLISDSLENTERISCRYSDVMSMVTKDAERFLGIMNCWLDSVV	not soluble
MKIIFLLFGFIFHPNNAQFDKSGVQQTLDAHNEFRSSIAKGTYVTKGLLHAPATNIMKMKWNVTIATAAQNHANKCPKGHDGPLEGVSGECMWSGHINASKGVNHLGAVAAKAWSSEYTKKGWETDVMSDEFFNSGVGHAIIMTWYSQVNVGCGVKLCQKEGDYQLAIVVCKYWGEGQGNGKIMYESGPTCSACPPNTTCDQATGLCDSKIPDIPEPIYKYDELVNSKPAYTVVMGFFLMIIVQLI	not soluble
